The measured values listed here are drawn from PubChem BioAssay AID1996.

Details: buffer; pH 7.4; 200.0 µM
Would you mind telling me the reported log10 solubility kinetic of each entry?
Hi team, quick reminder: these entries are log10 of solubility kinetic (µg/mL).

Reported log10 solubility kinetic, compound Cc1cc(NC(=O)c2ccccc2)ccc1NC(=O)Cc1ccccc1 : ____
-0.10

For COc1ccc(NC(=O)COC(=O)c2ccc3ccccc3n2)cc1OC , what is its reported log10 solubility kinetic?
0.83

What value of measured log10 solubility kinetic is listed for Fc1ccc2[nH]c3c(Cl)ncnc3c2c1 ?
0.90

Quick one: log10 solubility kinetic of C=CCNc1nc(Cl)nc(NC2CCCCC2)n1 ?
0.84

Any idea what its log10 solubility kinetic is? The compound is CCc1nc(Nc2cccc(O)c2)c2oc3ccccc3c2n1.Cl
-0.30

###

Details: buffer; pH 7.4; 200.0 µM
The threshold is inclusive: solubility kinetic of exactly 2 µg/mL counts as T; values below receive F.

Dear colleague, could you confirm whether CCNC(=O)COc1cc(C)c(Br)c(C)c1 has solubility kinetic at or above 2 µg/mL?
T

Is it the case that CCN1CCN(C(=O)c2cc3ccc(OC)cc3[nH]2)CC1 has solubility kinetic reaching or exceeding 2 µg/mL?
T

Could you verify whether the entry O=C(NC1(O)C(=O)c2ccccc2C1=O)c1ccc(C(F)(F)F)cc1 shows solubility kinetic of no less than 2 µg/mL?
T

Please check the record O=S(=O)(NCc1ccc2c(c1)OCO2)c1ccc(F)cc1 and state if its solubility kinetic is at or above 2 µg/mL.
T

Reported solubility kinetic reaches at least 2 µg/mL for CCc1ccnc(NC(=O)Nc2ccc(OCc3ccccc3)cc2)c1 ?
F

Threshold query (solubility kinetic >= 2 µg/mL) on C#CC[N+]1(C)C2CCC1CC(O)C2.[Br-] (stereo unspecified)
T

Please indicate if the recorded solubility kinetic for Cc1ccc(NC(=O)c2ccc(CSc3ccccn3)cc2)c(O)c1 meets or exceeds 2 µg/mL.
F

Is solubility kinetic at least 2 µg/mL? Consider COc1cc(CC(=O)N2CCN(S(=O)(=O)c3ccc(C)cc3)CC2)cc(OC)c1OC
T

Please tell me: is the compound COc1ccc(NC(=O)CN2C(=O)NC3(CCCCCC3)C2=O)cc1Cl at or over 2 µg/mL in terms of solubility kinetic?
T

Item Cc1ccc2c(c1)cc(C(=O)N1CCN(c3ccccn3)CC1)n2C with solubility kinetic of 2 µg/mL or above?
T

###

Field: solubility kinetic. Provide a value for each of the molecules that follow.
Conditions: buffer; pH 7.4; 200.0 µM

# get_value(readout='solubility kinetic', item= CCCNC(=O)C12CCC(C)(c3nc4cc(C)c(C)cc4nc31)C2(C)C (stereo unspecified) )
32.2 µg/mL

# solubility kinetic lookup, item O=C(Cn1cc(C(F)(F)F)ccc1=O)N/N=C/c1ccccc1
> 48.5 µg/mL

I am curious: what solubility kinetic value has been reported for CC1CCCN(c2nc3nonc3nc2Nc2ccccc2F)C1 (stereo unspecified) ?
0.8 µg/mL

# lookup: solubility kinetic of COc1ccc(C(=O)C(C)OC(=O)CNC(=O)C2CCCCC2)cc1 (stereo unspecified)
> 52.1 µg/mL

What value of measured solubility kinetic is listed for CCN(CC(=O)NC1CCCC1)S(=O)(=O)c1ccc(F)cc1 ?
> 49.3 µg/mL

// solubility kinetic lookup, key: O=C(NC1CCOc2ccccc21)C1CCCC1 (stereo unspecified)
> 36.8 µg/mL

###

Settings: buffer; pH 7.4; 200.0 µM
Outcome: 1 for solubility kinetic of at least 30 µg/mL; -1 for anything lower.

Hi team, for CCN(CC)c1nc(N)n(CCSC(=S)N(C)C)c(=O)n1 , is the recorded solubility kinetic at or above 30 µg/mL?
1

Could you tell me if the measured solubility kinetic of COc1ccc(C2C(C#N)=C(N)Oc3cc(N)ccc32)cc1 (stereo not given) reaches 30 µg/mL or more?
-1

Given Cc1ccc(OCC(=O)NC2CCS(=O)(=O)C2)c(C)c1 (stereo not given) , state whether its solubility kinetic is at least 30 µg/mL.
1

Please check the record O=C(Nc1cccc2ncccc12)c1cccc(Br)c1 and state if its solubility kinetic is at or above 30 µg/mL.
-1

Please tell me: is the molecule Cc1ccccc1NC(=O)Nc1ccc2c(c1)CCC2 at or over 30 µg/mL in terms of solubility kinetic?
-1

Determine whether this molecule has solubility kinetic no lower than 30 µg/mL: N[C@@H](Cc1cc(Br)c(O)c(Br)c1)C(=O)O
1

Textbook exercise: given the entry COc1ccccc1NC(=O)CNC(c1ccccc1)c1ccccc1 , state whether its solubility kinetic is greater than or equal to 30 µg/mL.
-1

Could you tell me if the measured solubility kinetic of CCCC1NC(=S)NC(C)=C1C(C)=O (stereo not given) reaches 30 µg/mL or more?
1

Quick check, solubility kinetic >= 30 µg/mL? O=C(CCNC(=O)c1ccccc1Cl)Nc1ccncc1
1

Record Cc1nc(N2CCN(c3ccccc3F)CC2)[nH]c(=O)c1C ; criterion: solubility kinetic no lower than 30 µg/mL. Met?
-1

API: above_or_equal(metric=solubility kinetic, cutoff=30 µg/mL) for item Br.C=CCn1c(C)csc1=Nc1ccccc1C
-1

Reported solubility kinetic at or above 30 µg/mL? Br.C=CCN1C2=NCCCN2c2ccccc21
1

Reported solubility kinetic at or above 30 µg/mL? CN(C)c1cc[n+](CC(=O)Nc2cccc([N+](=O)[O-])c2)cc1.[Cl-]
1

Dear colleague, could you confirm whether Cn1cnc2cc(NCc3cccs3)ccc21 has solubility kinetic at or above 30 µg/mL?
-1

Check this molecule for solubility kinetic at or above 30 µg/mL: Cc1onc(-c2ccccc2)c1C(=O)NCC(O)c1ccccc1 (stereo not given)
1

Please tell me: is the molecule COc1ccc(CC(=O)NCC2CCCCC2)cc1OC at or over 30 µg/mL in terms of solubility kinetic?
1

Tell me whether solubility kinetic is at least 30 µg/mL here: COc1cc(CNC(=O)c2cnc(C)cn2)cc(OC)c1
1

Check if solubility kinetic >= 30 µg/mL (inclusive). Item: O=C(COc1ncnc2cc(Cl)ccc12)c1ccc2c(c1)OCCO2
-1

solubility kinetic >= 30 µg/mL for COc1cc(OC)cc(C(=O)NCC(=O)OCC(=O)NC2CCCc3ccccc32)c1 (stereo not given) ?
1

Threshold query (solubility kinetic >= 30 µg/mL) on O=C(Cc1nc2ccccc2[nH]1)c1ccc(Br)cc1
-1

Would you say COc1ccc(NC(=O)c2sccc2C)cn1 shows solubility kinetic at minimum 30 µg/mL?
1

Decide: is the reported value of solubility kinetic for CCN(CC)Cc1c(O)ccc2c(=O)c(Oc3ccccc3OC)c(C)oc12 equal to or greater than 30 µg/mL?
1

Record CC(C)N(Cc1ccccc1)C(=S)Nc1ccc(F)cc1 ; criterion: solubility kinetic no lower than 30 µg/mL. Met?
1

Check the entry CC(C)NC(=O)CN1CCN(C(=O)CCl)CC1.Cl : does solubility kinetic equal or exceed 30 µg/mL?
1

###

Settings: buffer; pH 7.4; 200.0 µM
Label T when solubility kinetic >= 20 µg/mL; otherwise F.

Is solubility kinetic for CCN(CC)S(=O)(=O)c1ccc(C(=O)O)cc1 at or above 20 µg/mL?
T

Please tell me: is the compound O=C(CC1NCCNC1=O)Nc1ccccc1 (configuration not stated) at or over 20 µg/mL in terms of solubility kinetic?
T

Hi, just wondering whether Cc1cc(NC(=O)c2ccc(C)o2)no1 shows solubility kinetic of 20 µg/mL or higher.
T

Could you please find out whether CC(=O)C1C(c2ccc([N+](=O)[O-])cc2)c2c(noc2C)CC1(C)O (configuration not stated) has solubility kinetic that meets 20 µg/mL or exceeds it?
T

# bool: solubility kinetic of CC1CCN(C(=O)COC(=O)c2ccc(Cl)nc2)CC1 >= 20 µg/mL
T

# check: solubility kinetic of CN(C)CCNC(=O)C(c1ccccc1)c1ccccc1 is greater than or equal to 20 µg/mL
T

Check this compound for solubility kinetic at or above 20 µg/mL: O=C(CNC(=O)c1ccco1)Nc1ccc(F)c(Cl)c1
F

Does the reported solubility kinetic for CC(C)C(=O)Nc1cc(-c2nc3ncccc3o2)ccc1Cl fall at or above the 20 µg/mL mark?
F

Reported solubility kinetic at or above 20 µg/mL? CCN(c1ccccc1)c1nc2nonc2nc1NCCO
T

Check if solubility kinetic >= 20 µg/mL (inclusive). Item: CC(=O)Nc1c(F)cc(Br)cc1F
T

Does O=C(O)c1cccc(NC(=O)c2ccccc2NC(=O)c2ccco2)c1 have a reported solubility kinetic of at least 20 µg/mL?
T

###

Conditions: buffer; pH 7.4; 200.0 µM
Give measured solubility kinetic for each item. Keep answers brief.

Looking for the measured solubility kinetic of O=C(NCCNS(=O)(=O)c1ccccc1)c1ccc([N+](=O)[O-])cc1 , can you help?
51.1 µg/mL

Need solubility kinetic of O=C(c1ccncc1)c1ccc([N+](=O)[O-])cc1 , thanks.
> 34.2 µg/mL

Consider the compound shown here: Nc1ccc(N2CCCCC2)c2nonc12 What is its recorded solubility kinetic?
> 32.7 µg/mL

Value lookup for solubility kinetic; key = O=C(O)CCC(=O)Nc1nc2ccc([N+](=O)[O-])cc2s1
> 44.3 µg/mL

Which solubility kinetic is listed for CCC(=O)N(Cc1cc(=O)[nH]c2ccccc12)c1ccccc1 ?
> 46 µg/mL

Report solubility kinetic for Cc1cc(C)nc(SCC(=O)OCC(=O)Nc2ccccc2)n1 please.
> 49.7 µg/mL
